Experimental System: human cdk2/cyclin A (Homo sapiens, UniProt P24941)
Procedure Summary: Assay for inhibition of CDK2 (Scintillation Proximity Assay)
Test Parameters: read-out: cdk2SPA IC50
Method: Using the following reagents, supplies, and method, the ability of compounds of the invention to assay for modulation of the in vitro kinase activity of human cdk2/cyclin A in a Scintillation Proximity Assay (SPA). Activated cdk2/cyclin A enzyme complex is purified from Sf9 cells and stored at −80° C. in 200 μL aliquots. […] Add 200 μL stop solution per well using either the Titertek Multidrop or hand pipette. […] Count plate on Trilux reader.
Where a name gives a salt, the structure may show the parent alone.
Here the recorded IC50 is given for each entry.

# Compound, Experimental System, Modifier Sign, IC50 (nM)
rows = [
    ("Cc1cc(C(=O)NCCN2CCOCC2)[nH]c1C=C1C(=O)Nc2ncnc(Nc3ccc(F)c(Cl)c3)c21 [Formula 4, HYDROCHLORIDE]", "human cdk2/cyclin A (Homo sapiens, UniProt P24941)", ">", 10000),
    ("Cc1nc[nH]c1C=C1C(=O)Nc2ncnc(N3CCOCC3)c21 [Formula 14]", "human cdk2/cyclin A (Homo sapiens, UniProt P24941)", "=", 40),
    ("Cc1nc[nH]c1C=C1C(=O)Nc2ncnc(Nc3ccc(F)c(Cl)c3)c21 [Formula 8]", "human cdk2/cyclin A (Homo sapiens, UniProt P24941)", "=", 2620),
    ("Cc1nc[nH]c1C=C1C(=O)Nc2ncnc(N3CCN(C)CC3)c21 [Formula 11]", "human cdk2/cyclin A (Homo sapiens, UniProt P24941)", "=", 10),
    ("Cc1cc(C(=O)NCCN2CCOCC2)[nH]c1C=C1C(=O)Nc2nccc(Nc3ccc(F)c(Cl)c3)c21 [Formula 3]", "human cdk2/cyclin A (Homo sapiens, UniProt P24941)", ">", 10000),
]
